B1: glmS ribozyme (parent)
chain: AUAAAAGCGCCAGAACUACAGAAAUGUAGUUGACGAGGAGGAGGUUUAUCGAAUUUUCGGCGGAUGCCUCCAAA

- Variants of: B1
- method: kcat; higher = faster cleavage; RNA array
- measurement.context: with glucosamine-6-phosphate
Variants at the floor of the assay were thinned out.
quantity.measured: kcat (s⁻¹)
Express it in s⁻¹; write the number only.

Dear colleague, I am looking for the recorded kcat of the following variant: A12C G59C
1.09e-05

Dear colleague, I am looking for the recorded kcat of the following variant: U31A A52G
0.00103

Dear colleague, I am looking for the recorded kcat of the following variant: G13U C68G
2.36e-05

Dear colleague, I am looking for the recorded kcat of the following variant: A52G U54A
0.00109

Dear colleague, I am looking for the recorded kcat of the following variant: A6U A14U
4.98e-05

Dear colleague, I am looking for the recorded kcat of the following variant: A64U U69C
5.01e-05

Dear colleague, I am looking for the recorded kcat of the following variant: A52G C58A
4.08e-05

Dear colleague, I am looking for the recorded kcat of the following variant: U31G A33C
3.39e-05

Dear colleague, I am looking for the recorded kcat of the following variant: A48G U54C
0.000123

Dear colleague, I am looking for the recorded kcat of the following variant: A6C C67U
2.53e-05

Dear colleague, I am looking for the recorded kcat of the following variant: C11U C16U C71U
0.000649

Dear colleague, I am looking for the recorded kcat of the following variant: G38A C61G
1.44e-05

Dear colleague, I am looking for the recorded kcat of the following variant: G37A U69C
0.0003

Dear colleague, I am looking for the recorded kcat of the following variant: G29C G32A
0.00108

Dear colleague, I am looking for the recorded kcat of the following variant: U46A U55G
0.0019

Dear colleague, I am looking for the recorded kcat of the following variant: A12C U30C C71U
0.00195

Dear colleague, I am looking for the recorded kcat of the following variant: G41A A48U
4.08e-05

Dear colleague, I am looking for the recorded kcat of the following variant: G60C C70G
2.59e-05

Dear colleague, I am looking for the recorded kcat of the following variant: U30A G40U
0.000556

Dear colleague, I am looking for the recorded kcat of the following variant: G41A U46A
0.000569

Dear colleague, I am looking for the recorded kcat of the following variant: G37A G38C C67U C68G C71U
2.2e-05

Dear colleague, I am looking for the recorded kcat of the following variant: A48G U69C
9.33e-05

Dear colleague, I am looking for the recorded kcat of the following variant: U45A C50U
0.000477

Dear colleague, I am looking for the recorded kcat of the following variant: U57C U69G
2.77e-05

Dear colleague, I am looking for the recorded kcat of the following variant: C11U U49G
1.33e-05

Dear colleague, I am looking for the recorded kcat of the following variant: U47A A48U
0.000219

Dear colleague, I am looking for the recorded kcat of the following variant: A15G U45G
0.00832

Dear colleague, I am looking for the recorded kcat of the following variant: G29U U45C
0.000348

Dear colleague, I am looking for the recorded kcat of the following variant: A15G C16U C68G
5.74e-05

Dear colleague, I am looking for the recorded kcat of the following variant: U54G C68G
0.0001

Dear colleague, I am looking for the recorded kcat of the following variant: A15C A39U
0.00476

Dear colleague, I am looking for the recorded kcat of the following variant: A39C C68U
0.000495

Dear colleague, I am looking for the recorded kcat of the following variant: A6G A14C U54G
3.49e-05

Dear colleague, I am looking for the recorded kcat of the following variant: A33G G59U C68A C71A
2.2e-05

Dear colleague, I am looking for the recorded kcat of the following variant: A14C U47A
0.00403

Dear colleague, I am looking for the recorded kcat of the following variant: U45G C58A
0.000297

Dear colleague, I am looking for the recorded kcat of the following variant: A14G U56C
0.021

Dear colleague, I am looking for the recorded kcat of the following variant: A14G A42G A53G
0.0447

Dear colleague, I am looking for the recorded kcat of the following variant: C11A A12G
0.000158

Dear colleague, I am looking for the recorded kcat of the following variant: C11U A14C
0.000773
